For each entry below, report its MIC value.
tested on: Enterococcus faecium 800; assay: MIC by broth microdilution, EFcm 800; format: cell-based; conditions: Enterococcus faecium, 800, read-out: MIC E FCM 800

Request: Provide measured MIC value, entry: CCCCCOCCNC(=O)Oc1cc(O)c2c(c1)[C@@H](C(=O)NC1C3CC4CC(C3)CC1C4)NC(=O)[C@H]1NC(=O)[C@H](NC(=O)[C@@H]3NC(=O)[C@H](CC(N)=O)NC(=O)[C@H](NC(=O)[C@@H](CC(C)C)NC)[C@H](O)c4ccc(c(Cl)c4)Oc4cc3cc(c4O[C@@H]3O[C@H](CO)[C@@H](O)[C@H](O)[C@H]3O[C@H]3C[C@](C)(N)[C@H](O)[C@H](C)O3)Oc3ccc(cc3Cl)[C@H]1O)c1ccc(O)c-2c1 (stereo partly shown)
Response: 0.01 to 0.5 µg/mL

Request: Fill in reported MIC for this entry: CNCCOc1ccc(CCNC(=O)Oc2cc(O)c3c(c2)[C@@H](C(=O)NC2C4CC5CC(C4)CC2C5)NC(=O)[C@H]2NC(=O)[C@H](NC(=O)[C@@H]4NC(=O)[C@H](CC(N)=O)NC(=O)[C@H](NC(=O)[C@@H](CC(C)C)NC)[C@H](O)c5ccc(c(Cl)c5)Oc5cc4cc(c5O[C@@H]4O[C@H](CO)[C@@H](O)[C@H](O)[C@H]4O[C@H]4C[C@](C)(N)[C@H](O)[C@H](C)O4)Oc4ccc(cc4Cl)[C@H]2O)c2ccc(O)c-3c2)cc1 (stereo partly shown)
Response: 0.01 to 0.5 µg/mL

Request: Identify the reported MIC for the following entry. CNCCCOc1ccc(NC(=O)Oc2cc(O)c3c(c2)[C@@H](C(=O)NC2C4CC5CC(C4)CC2C5)NC(=O)[C@H]2NC(=O)[C@H](NC(=O)[C@@H]4NC(=O)[C@H](CC(N)=O)NC(=O)[C@H](NC(=O)[C@@H](CC(C)C)NC)[C@H](O)c5ccc(c(Cl)c5)Oc5cc4cc(c5O[C@@H]4O[C@H](CO)[C@@H](O)[C@H](O)[C@H]4O[C@H]4C[C@](C)(N)[C@H](O)[C@H](C)O4)Oc4ccc(cc4Cl)[C@H]2O)c2ccc(O)c-3c2)cc1 (stereo partly shown)
Response: 2 to 4 µg/mL

Request: Provide measured MIC value, entry: CCCCCOc1ccc(CCNC(=O)Oc2cc(O)c3c(c2)[C@@H](C(=O)NC2C4CC5CC(C4)CC2C5)NC(=O)[C@H]2NC(=O)[C@H](NC(=O)[C@@H]4NC(=O)[C@H](CC(N)=O)NC(=O)[C@H](NC(=O)[C@@H](CC(C)C)NC)[C@H](O)c5ccc(c(Cl)c5)Oc5cc4cc(c5O[C@@H]4O[C@H](CO)[C@@H](O)[C@H](O)[C@H]4O[C@H]4C[C@](C)(N)[C@H](O)[C@H](C)O4)Oc4ccc(cc4Cl)[C@H]2O)c2ccc(O)c-3c2)cc1 (stereo partly shown)
Response: 0.01 to 0.5 µg/mL
